Measured GI50 values are reported for all entries that follow.
- System: SF-295
- experimentDescription: NCI tumour cell line growth inhibition, 48 h
Calls of active or inactive are those of the source. Cut-off read from the data, not from the text of the source: active = GI50 up to about 1.1 µM and inactive = higher.

Previously resolved entries follow.
- compound: "O=C(Cn1c(C(=O)c2ccccc2)nc2ccccc21)c1ccccc1"
  observedValue: "67 µM (inactive)"
- compound: "O=C1C(=O)N(C(=O)c2ccc(Cl)c(Cl)c2)c2ccc(Cl)cc21"
  observedValue: "> 100 µM (inactive)"
- compound: "Nc1nc(-c2ccccc2)cc(-c2ccccc2O)n1"
  observedValue: "71.6 µM (inactive)"
- compound: "COc1cc([N+](=O)[O-])c(S(=O)(=O)O)cc1-n1nc(C(=O)Nc2ccccc2)n[n+]1-c1cc(S(=O)(=O)[O-])c([N+](=O)[O-])cc1OC"
  observedValue: "> 100 µM (inactive)"
- compound: "S=C(Nc1ccc2c(c1)Cc1ccccc1-2)Nc1ccc2c(c1)Cc1ccccc1-2"
  observedValue: "> 100 µM (inactive)"

Q: Quick one: GI50 of COC(=O)C(C(=O)Cc1ccccc1[N+](=O)[O-])C(=O)OC ?
Ans: 42.2 µM (inactive)

Q: Another compound to check: CC(=O)NC1CONC1=O (centres undefined)
Ans: > 100 µM (inactive)

Q: Another compound to check: Cc1ccc(-n2nnc(C(N)=O)c2O)cc1
Ans: > 100 µM (inactive)

Q: Another compound to check: O=c1c(F)cn(Cc2c(Cl)cccc2Cl)c(=O)n1Cc1c(Cl)cccc1Cl
Ans: > 31.6 µM (inactive)
